Would you mind telling me the reported pIC50 of each entry?
- Test system: murine L1210 leukemia cells
- assay conditions: read-out: Mouse Leukemia L1210 IC50; cells counted after 24 hours of growth
Where a SMILES comes first, the peptide text is derived from it. [ ]: non-standard residue; d: D form. The star is where a group is joined. NMe2Val = CC(C)[C@@H](C(=O)*)N(C)C; NH(thiazol-2-yl) = c1csc(N*)n1; NMeV = CN[C@H](C(=O)O)C(C)C; Hiv = CC(C)[C@H](O)C(=O)O; X2 = c1ccc2ncc(N*)cc2c1; X4 = COc1ccc(CCN*)cc1OC; X3 = c1ccc2sc(N*)nc2c1; X7 = Clc1cccc(CCN*)c1; NHPh = c1ccc(N*)cc1; X8 = Clc1ccccc1CCN*
One number for each entry, as −log10 of the molar value.

Below, 3 compounds whose answers are already recorded.
CC(C)[C@H](NC(=O)[C@H](C(C)C)N(C)C)C(=O)N(C)[C@H](C(=O)N1CCC[C@H]1C(=O)N1CCC[C@H]1C(=O)O[C@H](C(=O)Nc1ccccc1)C(C)C)C(C)C [Compound 12a] (NMe2Val-V[NMeV]PP[Hiv]-NHPh) | 8.52
CC(C)[C@H](NC(=O)[C@H](C(C)C)N(C)C)C(=O)N(C)[C@H](C(=O)N1CCC[C@H]1C(=O)N1CCC[C@H]1C(=O)O[C@H](C(=O)Nc1nccs1)C(C)C)C(C)C [Compound 12p] (NMe2Val-V[NMeV]PP[Hiv]-{NH(thiazol-2-yl)}) | 8.70
CC(C)[C@H](NC(=O)[C@H](C(C)C)N(C)C)C(=O)N(C)[C@H](C(=O)N1CCC[C@H]1C(=O)N1CCC[C@H]1C(=O)O[C@H](C(=O)Nc1nc2ccccc2s1)C(C)C)C(C)C [Compound 12q] (NMe2Val-V[NMeV]PP[Hiv]-X3) | 8.52

Give one value of pIC50 per listed compound.
1. COC(=O)[C@H](Cc1ccccc1)NC(=O)[C@@H](OC(=O)[C@@H]1CCCN1C(=O)[C@@H]1CCCN1C(=O)[C@H](C(C)C)N(C)C(=O)[C@@H](NC(=O)[C@H](C(C)C)N(C)C)C(C)C)C(C)C [Compound 12m] (NMe2Val-V[NMeV]PP[Hiv]F-OMe)
2. COc1ccc(CCNC(=O)[C@@H](OC(=O)[C@@H]2CCCN2C(=O)[C@@H]2CCCN2C(=O)[C@H](C(C)C)N(C)C(=O)[C@@H](NC(=O)[C@H](C(C)C)N(C)C)C(C)C)C(C)C)cc1OC [Compound 12j] (NMe2Val-V[NMeV]PP[Hiv]-X4)
3. CC(C)[C@H](NC(=O)[C@H](C(C)C)N(C)C)C(=O)N(C)[C@H](C(=O)N1CCC[C@H]1C(=O)N1CCC[C@H]1C(=O)O[C@H](C(=O)NCCc1cccc(Cl)c1)C(C)C)C(C)C [Compound 12f] (NMe2Val-V[NMeV]PP[Hiv]-X7)
4. CC(C)[C@H](NC(=O)[C@H](C(C)C)N(C)C)C(=O)N(C)[C@H](C(=O)N1CCC[C@H]1C(=O)N1CCC[C@H]1C(=O)O[C@H](C(=O)NCCc1ccccc1Cl)C(C)C)C(C)C [Compound 12g] (NMe2Val-V[NMeV]PP[Hiv]-X8)
5. CC(C)[C@H](NC(=O)[C@H](C(C)C)N(C)C)C(=O)N(C)[C@H](C(=O)N1CCC[C@H]1C(=O)N1CCC[C@H]1C(=O)O[C@H](C(=O)Nc1cnc2ccccc2c1)C(C)C)C(C)C [Compound 12r] (NMe2Val-V[NMeV]PP[Hiv]-X2)

### Response
8.52
8.70
8.40
8.40
8.70
